The reader will find reported PBM binding z-score values listed item by item below.
tested on: LXRb:RXRa (NR concentration 270 nM, RXRa partner concentration 90 nM); assay: PBM binding z-score (relative to random genomic background probes); higher = stronger binding; sequences stand for … in GC…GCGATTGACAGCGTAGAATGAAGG
Respond numerically, and do not add a unit to the figure.

Below are worked cases with known answers.
Endpoint output: PBM binding z-score of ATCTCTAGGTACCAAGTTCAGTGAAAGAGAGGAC . Value?
0.651

Request: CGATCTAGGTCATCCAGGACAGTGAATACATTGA
2.09

Record: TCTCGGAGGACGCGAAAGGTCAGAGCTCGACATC
2.37

Note, next up: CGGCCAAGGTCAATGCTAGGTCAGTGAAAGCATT
4.08

Also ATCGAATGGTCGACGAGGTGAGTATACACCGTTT , if possible.
-0.341

Entry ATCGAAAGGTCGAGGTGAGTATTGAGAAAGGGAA please
2.81

New cases:
Please look up its PBM binding z-score: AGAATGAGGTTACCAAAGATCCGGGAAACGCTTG
1.33

Follow-up item: TCTCGGAGAACACGAAGGTCAGAGCTTTCCAGAG
0.915

Next record, please: GCGACTGGGGCAAACCAGGTTACCATAAGGTTGG
0.0865

// repeat for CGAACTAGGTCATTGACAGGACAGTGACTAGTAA and report
1.79

Follow-up item: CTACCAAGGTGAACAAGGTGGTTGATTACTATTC
0.391

Then this sequence: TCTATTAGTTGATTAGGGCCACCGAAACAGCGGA
0.653
